Target: CDK1/B (Homo sapiens)
Sequence (P06493 whole entry): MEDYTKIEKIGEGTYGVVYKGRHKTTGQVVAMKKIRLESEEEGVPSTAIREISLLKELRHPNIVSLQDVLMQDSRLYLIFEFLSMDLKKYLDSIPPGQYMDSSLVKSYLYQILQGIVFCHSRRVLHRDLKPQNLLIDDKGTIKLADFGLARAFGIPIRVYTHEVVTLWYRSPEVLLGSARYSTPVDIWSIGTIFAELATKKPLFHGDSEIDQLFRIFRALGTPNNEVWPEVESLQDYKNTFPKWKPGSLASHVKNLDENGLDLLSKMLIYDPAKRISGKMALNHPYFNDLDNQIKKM
Sequence (P14635 whole entry partner): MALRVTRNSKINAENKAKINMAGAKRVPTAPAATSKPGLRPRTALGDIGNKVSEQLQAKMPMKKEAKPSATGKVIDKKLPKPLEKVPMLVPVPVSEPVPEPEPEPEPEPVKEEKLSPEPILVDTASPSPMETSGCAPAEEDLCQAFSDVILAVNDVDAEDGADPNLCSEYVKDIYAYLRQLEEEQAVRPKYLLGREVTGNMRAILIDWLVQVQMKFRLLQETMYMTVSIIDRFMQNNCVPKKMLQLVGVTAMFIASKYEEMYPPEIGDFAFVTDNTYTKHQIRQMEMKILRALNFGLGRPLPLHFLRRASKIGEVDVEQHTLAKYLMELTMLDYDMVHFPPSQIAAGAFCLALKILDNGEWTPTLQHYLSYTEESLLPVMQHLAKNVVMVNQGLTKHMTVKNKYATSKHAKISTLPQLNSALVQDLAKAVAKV
Assay: Additional inhibition assay, CDK1/B
Assay type: biochemical
Conditions: Table 3b
pIC50: −log10 of the molar value.
measured_parameter: pIC50

[I] O=C1NCCC12Cc1cnc(Nc3ccc(N4CCC(N5CCOCC5)CC4)c(F)c3)nc1N2C1CCCC1 (stereo not drawn)
[II] CC(C)N1CCN(c2ccc(Nc3ncc4c(n3)N(C3CCCC3)C3(CC(=O)NC3=O)C4)cc2)CC1 (stereo not drawn)
## Input Quick one: lower pIC50, I or II ? Lab note: record the label of whichever item you select.
## Output I
(I: 5.16, II: 5.75)

----------
Molecular target: CDK6-CYCLIND3 (Homo sapiens)
Construct: purchased Carna
Sequence (Q00534 whole entry): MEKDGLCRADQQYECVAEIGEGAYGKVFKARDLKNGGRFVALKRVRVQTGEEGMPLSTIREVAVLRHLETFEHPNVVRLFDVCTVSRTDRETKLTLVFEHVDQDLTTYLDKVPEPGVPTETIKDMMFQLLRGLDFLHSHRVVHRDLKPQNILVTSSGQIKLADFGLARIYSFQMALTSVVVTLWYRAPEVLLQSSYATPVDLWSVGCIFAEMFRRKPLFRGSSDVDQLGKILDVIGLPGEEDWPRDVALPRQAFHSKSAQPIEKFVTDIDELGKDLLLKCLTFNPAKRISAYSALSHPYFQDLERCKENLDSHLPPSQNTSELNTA
Sequence (P30281 whole entry partner): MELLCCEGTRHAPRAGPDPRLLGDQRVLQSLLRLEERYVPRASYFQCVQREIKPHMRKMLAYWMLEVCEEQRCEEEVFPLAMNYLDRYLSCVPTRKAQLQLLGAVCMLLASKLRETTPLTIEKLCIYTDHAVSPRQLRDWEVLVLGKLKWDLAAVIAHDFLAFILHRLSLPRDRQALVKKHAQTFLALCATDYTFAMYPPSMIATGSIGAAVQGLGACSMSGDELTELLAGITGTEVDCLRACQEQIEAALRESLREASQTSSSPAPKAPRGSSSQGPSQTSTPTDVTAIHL
Assay: Microfluidic LabChip kinase inhibition assay, CDK6-CyclinD3
Format: biochemical
Details: Table 2; 300 μM ATP, 2 nM enzyme; read-out: CDK6 IC50
measured_parameter: IC50 (µM)

CN1CCN(c2ccc(Nc3ncc4c(n3)N(C3CCCC3)C3(CCCN(Cc5ccccc5)C3=O)C4)c(F)c2)CC1 (stereo not shown) [Compound C42] : 12.1
CC(C)N1CCN(c2ccc(Nc3ncc4c(n3)N(C3CCCC3)C3(CC(=O)N(C)C3=O)C4)cc2F)CC1 (stereo not shown) [Compound C73] : 9.74
